subject-of-test: HLA-A*3101 (Homo sapiens, UniProt P04439, A270S/D185E/E176V/E277Q/F33T/G231S/G80R/H175R/I121M/I218V/I322F/K168Q/L300P/L318F/M331R/P217A/Q94H/R138Q/T323A/T345S/T97I/V358M)
protocol-summary: HLA class I binding assay, purified HLA-A*3101
condition-parameters: Table XXIII, binding affinity
// values below are reported IC50
Numbers only; they are read as nM.

Study these solved cases before continuing.
molecule: CC(C)C[C@H](NC(=O)[C@H](CC(C)C)NC(=O)[C@@H](NC(=O)[C@H](CC(C)C)NC(=O)[C@@H](NC(=O)[C@@H](N)CCCNC(=N)N)C(C)C)[C@@H](C)O)C(=O)N[C@@H](CO)C(=O)N[C@H](C(=O)N[C@H](C(=O)N[C@@H](CCCCN)C(=O)O)[C@@H](C)O)C(C)C [CEA.376.V2K10]
IC50 (nM): 164
--
molecule: CC(C)C[C@H](NC(=O)[C@@H](NC(=O)[C@@H](N)CCCNC(=N)N)C(C)C)C(=O)N[C@H](C(=O)N[C@@H](CC(C)C)C(=O)N[C@@H](Cc1ccccc1)C(=O)N[C@@H](CC(N)=O)C(=O)N[C@H](C(=O)N[C@H](C(=O)N[C@@H](CCCCN)C(=O)O)[C@@H](C)O)C(C)C)[C@@H](C)O [CEA.554.V42K10]
IC50 (nM): 234
--
molecule: CC(C)[C@H](NC(=O)[C@@H](N)[C@@H](C)O)C(=O)N[C@@H](CO)C(=O)N1CCC[C@H]1C(=O)N[C@@H](CO)C(=O)N[C@@H](Cc1ccc(O)cc1)C(=O)N[C@H](C(=O)N[C@@H](Cc1ccc(O)cc1)C(=O)N[C@@H](Cc1ccc(O)cc1)C(=O)N[C@@H](CCCCN)C(=O)O)[C@@H](C)O [CEA.419.V2K10]
IC50 (nM): 3670

Proceed to the following item.
Supply recorded IC50 for CC[C@H](C)[C@H](N)C(=O)N[C@H](C(=O)N1CCC[C@H]1C(=O)N[C@@H](CO)C(=O)N[C@@H](Cc1ccc(O)cc1)C(=O)N[C@H](C(=O)N[C@@H](Cc1ccc(O)cc1)C(=O)N[C@@H](Cc1ccc(O)cc1)C(=O)N[C@@H](CCCCN)C(=O)O)[C@@H](C)O)C(C)C [CEA.420.V2K9] here. 720
